Provenance of the data: patent US20130131043A1

Entries annotated with measured IC50
Target: JAK2 (Homo sapiens)
Construct: endogenous in cells; mixed Molt4/Ramos lysate 1:2
Sequence (O60674 whole entry): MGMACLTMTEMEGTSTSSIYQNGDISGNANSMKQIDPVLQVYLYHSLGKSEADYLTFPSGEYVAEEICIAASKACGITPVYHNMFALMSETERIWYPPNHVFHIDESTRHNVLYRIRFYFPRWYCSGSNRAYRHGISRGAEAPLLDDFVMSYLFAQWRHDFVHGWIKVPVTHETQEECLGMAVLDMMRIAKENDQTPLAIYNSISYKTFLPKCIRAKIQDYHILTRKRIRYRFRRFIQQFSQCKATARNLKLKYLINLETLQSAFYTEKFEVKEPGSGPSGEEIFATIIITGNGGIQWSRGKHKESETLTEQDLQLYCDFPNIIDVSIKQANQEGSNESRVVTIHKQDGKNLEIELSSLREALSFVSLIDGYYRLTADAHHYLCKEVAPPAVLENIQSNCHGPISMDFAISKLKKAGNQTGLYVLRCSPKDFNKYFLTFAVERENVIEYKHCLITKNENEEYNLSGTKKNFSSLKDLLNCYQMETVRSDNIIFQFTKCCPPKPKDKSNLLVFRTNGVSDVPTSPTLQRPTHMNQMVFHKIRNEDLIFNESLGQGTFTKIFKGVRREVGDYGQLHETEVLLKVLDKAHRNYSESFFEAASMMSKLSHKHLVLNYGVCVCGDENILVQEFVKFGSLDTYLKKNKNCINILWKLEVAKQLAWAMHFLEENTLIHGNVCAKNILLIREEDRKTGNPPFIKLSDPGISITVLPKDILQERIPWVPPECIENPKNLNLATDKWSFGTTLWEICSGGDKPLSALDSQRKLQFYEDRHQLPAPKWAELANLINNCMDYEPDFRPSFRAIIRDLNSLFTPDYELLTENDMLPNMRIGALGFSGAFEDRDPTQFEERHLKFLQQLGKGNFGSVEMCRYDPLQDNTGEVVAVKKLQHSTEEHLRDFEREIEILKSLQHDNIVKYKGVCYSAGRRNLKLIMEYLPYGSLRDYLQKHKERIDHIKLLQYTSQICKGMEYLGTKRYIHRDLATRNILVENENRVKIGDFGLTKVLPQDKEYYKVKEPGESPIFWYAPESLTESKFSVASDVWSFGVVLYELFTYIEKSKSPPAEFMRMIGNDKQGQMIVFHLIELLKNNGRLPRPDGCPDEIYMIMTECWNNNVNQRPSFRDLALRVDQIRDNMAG
Assay: Kinobeads assay, JAK2 (competition binding in cell lysate, dot blot detection)
Details: mixed Molt4/Ramos lysate
ASSAY READOUT: IC50

[
  {
    "MOLECULE": "Cn1cc(Nc2ncc3cnn(CC4CCCN(CC(F)F)C4)c3n2)cn1 (stereo not shown)",
    "SYSTEM": "JAK2 (Homo sapiens)",
    "ASSAY READOUT": "IC50",
    "OBS VALUE": "1 to 10 µM"
  },
  {
    "MOLECULE": "C[C@H]1CCCC[C@@H]1n1ncc2cnc(Nc3cnn(C)c3)nc21 (racemic)",
    "SYSTEM": "JAK2 (Homo sapiens)",
    "ASSAY READOUT": "IC50",
    "OBS VALUE": "1 to 10 µM"
  },
  {
    "MOLECULE": "Cn1cc(Nc2ncc3cnn(CC4CCN(S(C)(=O)=O)C4)c3n2)cn1 (stereo not shown)",
    "SYSTEM": "JAK2 (Homo sapiens)",
    "ASSAY READOUT": "IC50",
    "OBS VALUE": "> 10 µM"
  },
  {
    "MOLECULE": "Cn1cc(Nc2ncc3cnn(CC4CCCN(CCCS(C)(=O)=O)C4)c3n2)cn1 (stereo not shown)",
    "SYSTEM": "JAK2 (Homo sapiens)",
    "ASSAY READOUT": "IC50",
    "OBS VALUE": "1 to 10 µM"
  },
  {
    "MOLECULE": "CCN1CCCC(Cn2ncc3cnc(Nc4cnn(C)c4)nc32)C1 (stereo not shown)",
    "SYSTEM": "JAK2 (Homo sapiens)",
    "ASSAY READOUT": "IC50",
    "OBS VALUE": "1 to 10 µM"
  },
  {
    "MOLECULE": "Cn1cc(Nc2ncc3cnn(C4CCCCCC4)c3n2)cn1",
    "SYSTEM": "JAK2 (Homo sapiens)",
    "ASSAY READOUT": "IC50",
    "OBS VALUE": "1 to 10 µM"
  },
  {
    "MOLECULE": "CCS(=O)(=O)N1CCCC(Cn2ncc3cnc(Nc4cnn(C)c4)nc32)C1 (stereo not shown)",
    "SYSTEM": "JAK2 (Homo sapiens)",
    "ASSAY READOUT": "IC50",
    "OBS VALUE": "1 to 10 µM"
  },
  {
    "MOLECULE": "Cn1cc(Nc2ncc3cnn(CC4CCCN(S(C)(=O)=O)C4)c3n2)cn1 (stereo not shown)",
    "SYSTEM": "JAK2 (Homo sapiens)",
    "ASSAY READOUT": "IC50",
    "OBS VALUE": "1 to 10 µM"
  },
  {
    "MOLECULE": "CN(C)CC(=O)N1CCCC(Cn2ncc3cnc(Nc4cnn(C)c4)nc32)C1 (stereo not shown)",
    "SYSTEM": "JAK2 (Homo sapiens)",
    "ASSAY READOUT": "IC50",
    "OBS VALUE": "> 10 µM"
  },
  {
    "MOLECULE": "CC(C)NC(=O)CN1CCCC(Cn2ncc3cnc(Nc4cnn(C)c4)nc32)C1 (stereo not shown)",
    "SYSTEM": "JAK2 (Homo sapiens)",
    "ASSAY READOUT": "IC50",
    "OBS VALUE": "> 10 µM"
  },
  {
    "MOLECULE": "Cn1cc(Nc2ncc3cnn(C4CCCNC4)c3n2)cn1 (stereo not shown)",
    "SYSTEM": "JAK2 (Homo sapiens)",
    "ASSAY READOUT": "IC50",
    "OBS VALUE": "> 10 µM"
  },
  {
    "MOLECULE": "CS(=O)(=O)N1CCCC(Cn2ncc3cnc(Nc4cnn(CC(F)F)c4)nc32)C1 (stereo not shown)",
    "SYSTEM": "JAK2 (Homo sapiens)",
    "ASSAY READOUT": "IC50",
    "OBS VALUE": "1 to 10 µM"
  },
  {
    "MOLECULE": "CC(C)S(=O)(=O)N1CCCC(Cn2ncc3cnc(Nc4cnn(C)c4)nc32)C1 (stereo not shown)",
    "SYSTEM": "JAK2 (Homo sapiens)",
    "ASSAY READOUT": "IC50",
    "OBS VALUE": "1 to 10 µM"
  },
  {
    "MOLECULE": "COCCCN1CCCC(Cn2ncc3cnc(Nc4cnn(C)c4)nc32)C1 (stereo not shown)",
    "SYSTEM": "JAK2 (Homo sapiens)",
    "ASSAY READOUT": "IC50",
    "OBS VALUE": "> 10 µM"
  },
  {
    "MOLECULE": "CSCCN1CCCC(Cn2ncc3cnc(Nc4cnn(C)c4)nc32)C1 (stereo not shown)",
    "SYSTEM": "JAK2 (Homo sapiens)",
    "ASSAY READOUT": "IC50",
    "OBS VALUE": "> 10 µM"
  },
  {
    "MOLECULE": "Cn1cc(Nc2ncc3cnn(C4CCCN(C(=O)CC#N)C4)c3n2)cn1 (stereo not shown)",
    "SYSTEM": "JAK2 (Homo sapiens)",
    "ASSAY READOUT": "IC50",
    "OBS VALUE": "> 10 µM"
  },
  {
    "MOLECULE": "COC(=O)N1CCCC(Cn2ncc3cnc(Nc4cnn(C)c4)nc32)C1 (stereo not shown)",
    "SYSTEM": "JAK2 (Homo sapiens)",
    "ASSAY READOUT": "IC50",
    "OBS VALUE": "> 10 µM"
  },
  {
    "MOLECULE": "Cn1cc(Nc2ncc3cnn(CC4CCCN(CCO)C4)c3n2)cn1 (stereo not shown)",
    "SYSTEM": "JAK2 (Homo sapiens)",
    "ASSAY READOUT": "IC50",
    "OBS VALUE": "1 to 10 µM"
  },
  {
    "MOLECULE": "Cn1cc(Nc2ncc3cnn(CC4CCCN(C(=O)OCCF)C4)c3n2)cn1 (stereo not shown)",
    "SYSTEM": "JAK2 (Homo sapiens)",
    "ASSAY READOUT": "IC50",
    "OBS VALUE": "> 10 µM"
  },
  {
    "MOLECULE": "N#CCN1CCCC(Cn2ncc3cnc(Nc4cnn(CC(F)F)c4)nc32)C1 (stereo not shown)",
    "SYSTEM": "JAK2 (Homo sapiens)",
    "ASSAY READOUT": "IC50",
    "OBS VALUE": "1 to 10 µM"
  },
  {
    "MOLECULE": "Cn1cc(Nc2ncc3cnn(CC4CCCN(C(=O)NC5CC5)C4)c3n2)cn1 (stereo not shown)",
    "SYSTEM": "JAK2 (Homo sapiens)",
    "ASSAY READOUT": "IC50",
    "OBS VALUE": "1 to 10 µM"
  },
  {
    "MOLECULE": "CC1CCC(n2ncc3cnc(Nc4cnn(C)c4)nc32)C1 (mixture of isomers)",
    "SYSTEM": "JAK2 (Homo sapiens)",
    "ASSAY READOUT": "IC50",
    "OBS VALUE": "1 to 10 µM"
  },
  {
    "MOLECULE": "CSCCC(=O)N1CCCC(Cn2ncc3cnc(Nc4cnn(CC(F)F)c4)nc32)C1 (stereo not shown)",
    "SYSTEM": "JAK2 (Homo sapiens)",
    "ASSAY READOUT": "IC50",
    "OBS VALUE": "> 10 µM"
  },
  {
    "MOLECULE": "COCCOC(=O)N1CCCC(Cn2ncc3cnc(Nc4cnn(C)c4)nc32)C1 (stereo not shown)",
    "SYSTEM": "JAK2 (Homo sapiens)",
    "ASSAY READOUT": "IC50",
    "OBS VALUE": "> 10 µM"
  },
  {
    "MOLECULE": "CC1CCCC1n1ncc2cnc(Nc3cnn(C)c3)nc21 (stereo not shown)",
    "SYSTEM": "JAK2 (Homo sapiens)",
    "ASSAY READOUT": "IC50",
    "OBS VALUE": "> 10 µM"
  },
  {
    "MOLECULE": "Cn1cc(Nc2ncc3cnn(C4CCN(C(=O)CC#N)CC4)c3n2)cn1",
    "SYSTEM": "JAK2 (Homo sapiens)",
    "ASSAY READOUT": "IC50",
    "OBS VALUE": "1 to 10 µM"
  },
  {
    "MOLECULE": "Cn1cc(Nc2ncc3cnn(CC4CCCN(CCS(C)(=O)=O)C4)c3n2)cn1 (stereo not shown)",
    "SYSTEM": "JAK2 (Homo sapiens)",
    "ASSAY READOUT": "IC50",
    "OBS VALUE": "1 to 10 µM"
  },
  {
    "MOLECULE": "Cn1cc(Nc2ncc3cnn(C4CCN(S(C)(=O)=O)CC4)c3n2)cn1",
    "SYSTEM": "JAK2 (Homo sapiens)",
    "ASSAY READOUT": "IC50",
    "OBS VALUE": "1 to 10 µM"
  },
  {
    "MOLECULE": "N#CCCN1CCCC(Cn2ncc3cnc(Nc4cnn(CC(F)F)c4)nc32)C1 (stereo not shown)",
    "SYSTEM": "JAK2 (Homo sapiens)",
    "ASSAY READOUT": "IC50",
    "OBS VALUE": "> 10 µM"
  },
  {
    "MOLECULE": "CS(=O)(=O)CCC(=O)N1CCCC(Cn2ncc3cnc(Nc4cnn(CC(F)F)c4)nc32)C1 (stereo not shown)",
    "SYSTEM": "JAK2 (Homo sapiens)",
    "ASSAY READOUT": "IC50",
    "OBS VALUE": "> 10 µM"
  },
  {
    "MOLECULE": "C[C@H]1CCCC[C@H]1n1ncc2cnc(Nc3cnn(C)c3)nc21 (racemic)",
    "SYSTEM": "JAK2 (Homo sapiens)",
    "ASSAY READOUT": "IC50",
    "OBS VALUE": "1 to 10 µM"
  },
  {
    "MOLECULE": "Cn1cc(Nc2ncc3cnn(CCC4CCCNC4)c3n2)cn1 (stereo not shown)",
    "SYSTEM": "JAK2 (Homo sapiens)",
    "ASSAY READOUT": "IC50",
    "OBS VALUE": "> 10 µM"
  },
  {
    "MOLECULE": "Cn1cc(Nc2ncc3cnn(CC4CCN(S(=O)(=O)C5CC5)C4)c3n2)cn1 (stereo not shown)",
    "SYSTEM": "JAK2 (Homo sapiens)",
    "ASSAY READOUT": "IC50",
    "OBS VALUE": "> 10 µM"
  },
  {
    "MOLECULE": "Cn1cc(Nc2ncc3cnn(C4CCOCC4)c3n2)cn1",
    "SYSTEM": "JAK2 (Homo sapiens)",
    "ASSAY READOUT": "IC50",
    "OBS VALUE": "> 10 µM"
  },
  {
    "MOLECULE": "CS(=O)(=O)N1CCCC(Cn2ncc3cnc(Nc4cnn(CCO)c4)nc32)C1 (stereo not shown)",
    "SYSTEM": "JAK2 (Homo sapiens)",
    "ASSAY READOUT": "IC50",
    "OBS VALUE": "1 to 10 µM"
  },
  {
    "MOLECULE": "Cn1cc(Nc2ncc3cnn(CC4CCCN(CCC#N)C4)c3n2)cn1 (stereo not shown)",
    "SYSTEM": "JAK2 (Homo sapiens)",
    "ASSAY READOUT": "IC50",
    "OBS VALUE": "1 to 10 µM"
  },
  {
    "MOLECULE": "Cn1cc(Nc2ncc3cnn(CC4CCCCC4)c3n2)cn1",
    "SYSTEM": "JAK2 (Homo sapiens)",
    "ASSAY READOUT": "IC50",
    "OBS VALUE": "1 to 10 µM"
  }
]
